Target: full length active recombinant SYK enzyme (Homo sapiens, UniProt P43405)
Construct: full length active recombinant SYK enzyme (Millipore, Calif.)
Experiment: Inhibition of Syk tyrosine phosphorylation activity (LANCE TR-FRET kinase assay)
pIC50: −log10 of the molar value.
MEASURED QUANTITY: pIC50

Some solved cases for reference:
Report measured pIC50; entry is "CC(C)[C@@H](Nc1nc(Nc2cnc3ccccc3c2)c(C(N)=O)cc1F)C(N)=O"
7.00 to 8.00

Report measured pIC50; entry is "NC(=O)c1cc(F)c(N[C@@H]2CCCC[C@@H]2N)nc1Nc1ccccc1"
8.00 to 9.00

Report measured pIC50; entry is "NC(=O)c1cc(F)c(N[C@@H]2CCCC[C@@H]2N)nc1Nc1ccc2ncsc2c1"
> 9.00

Report measured pIC50; entry is "Cc1cc(Nc2cc(N[C@@H]3CCCC[C@@H]3N)ccc2C(N)=O)sn1"
7.00 to 8.00

Report measured pIC50; entry is "NC(=O)c1ccc(N[C@@H]2CCCC[C@@H]2N)cc1Nc1cc(-c2ccccc2)no1"
7.00 to 8.00

Report measured pIC50; entry is "NC(=O)c1cnc(N[C@@H]2CCCC[C@@H]2N)cc1Nc1cnn2ccccc12"
< 6.00

Report measured pIC50; entry is "CC[C@H](CN)Nc1nc(Nc2ccc3ncccc3c2)c(C(N)=O)cc1F"
8.00 to 9.00

Report measured pIC50; entry is "CC[C@H](CN)Nc1nc(Nc2cncc(OC)c2)c(C(N)=O)cc1F"
7.00 to 8.00

Consider the additional compound presented here.
Report measured pIC50; entry is "Cc1cc(Nc2nc(N[C@@H]3CCCC[C@@H]3N)ccc2C(N)=O)sn1"
8.00 to 9.00

* * *

Biological target: full length active recombinant SYK enzyme (Homo sapiens)
Construct: full length active recombinant SYK enzyme (Millipore, Calif.)
Assay: Inhibition of Syk tyrosine phosphorylation activity (LANCE TR-FRET kinase assay)
Readings of IC50 for the listed compounds

Report measured IC50; entry is "NC(=O)c1cc(F)c(N[C@@H]2CCCC[C@@H]2N)nc1Nc1ccc(OC2CCOCC2)cc1"
10 to 100 nM

Report measured IC50; entry is "NC(=O)c1ccc(N[C@@H]2CCCC[C@@H]2N)nc1Nc1ccc2nc(O)sc2c1"
1 to 10 nM

Consider the additional compound presented here.
Report measured IC50; entry is "Cc1cc(Nc2cc(N[C@H](Cc3ccncc3)C(N)=O)c(F)cc2C(N)=O)sn1"
100 to 1000 nM

* * *

Readings of IC50 for the listed molecules
Molecular target: full length active recombinant SYK enzyme (Homo sapiens, UniProt P43405)
Construct: full length active recombinant SYK enzyme (Millipore, Calif.)
Experiment: Inhibition of Syk tyrosine phosphorylation activity (LANCE TR-FRET kinase assay)

Some solved cases for reference:
Report measured IC50; entry is "CC[C@@H](Nc1nc(Nc2ccc3ncccc3c2)c(C(N)=O)cc1F)C(N)=O"
10 to 100 nM

Report measured IC50; entry is "Cc1cc(Nc2c(C(N)=O)ccc(N[C@H](CC(C)C)C(N)=O)c2F)sn1"
> 1000 nM

Report measured IC50; entry is "CC(C)C[C@@H](Nc1nc(Nc2ccc3ncccc3c2)c(C(N)=O)cc1F)C(N)=O"
1 to 10 nM

Consider the additional molecule presented here.
Report measured IC50; entry is "CC[C@@H](Nc1ccc(C(N)=O)c(Nc2cc(C)ns2)c1)C(N)=O"
10 to 100 nM

* * *

Molecular target: full length active recombinant SYK enzyme (Homo sapiens, UniProt P43405)
Construct: full length active recombinant SYK enzyme (Millipore, Calif.)
Assay: Inhibition of Syk tyrosine phosphorylation activity (LANCE TR-FRET kinase assay)
MEASURED QUANTITY: IC50

Some solved cases for reference:
Enter measured IC50, system full length active recombinant SYK enzyme (Homo sapiens, UniProt P43405), for the compound shown: "NC(=O)c1ccc(N[C@@H]2CCCC[C@@H]2N)cc1Nc1ccc(F)cc1"
> 1000 nM

Enter measured IC50, system full length active recombinant SYK enzyme (Homo sapiens, UniProt P43405), for the compound shown: "Cc1cc(Nc2cc(N[C@H](CC3CC3)C(N)=O)c(F)cc2C(N)=O)sn1"
10 to 100 nM

Enter measured IC50, system full length active recombinant SYK enzyme (Homo sapiens, UniProt P43405), for the compound shown: "NC(=O)c1cc(F)c(N[C@H](CC(F)(F)F)C(N)=O)nc1Nc1cnc2ccccc2c1"
10 to 100 nM

Enter measured IC50, system full length active recombinant SYK enzyme (Homo sapiens, UniProt P43405), for the compound shown: "NC(=O)c1cc(F)c(N[C@@H]2CCCC[C@@H]2N)nc1Nc1ccc(-n2cccc2)cc1"
1 to 10 nM

Enter measured IC50, system full length active recombinant SYK enzyme (Homo sapiens, UniProt P43405), for the compound shown: "C[C@H](CN)Nc1nc(Nc2ccc3ncccc3c2)c(C(N)=O)cc1C#N"
10 to 100 nM

Consider the additional compound presented here.
Enter measured IC50, system full length active recombinant SYK enzyme (Homo sapiens, UniProt P43405), for the compound shown: "Cc1cc(Nc2nc(N[C@H](CC3CC3)C(N)=O)ccc2C(N)=O)sn1"
10 to 100 nM

* * *

Readings of pIC50 for the listed compounds
Target: full length active recombinant SYK enzyme (Homo sapiens, UniProt P43405)
Construct: full length active recombinant SYK enzyme (Millipore, Calif.)
Test: Inhibition of Syk tyrosine phosphorylation activity (LANCE TR-FRET kinase assay)
pIC50: −log10 of the molar value.

Report measured pIC50; entry is N#Cc1cc(C(N)=O)c(Nc2cccc(-c3ncccn3)c2)nc1N[C@@H]1CCCC[C@@H]1N [Example 130]
8.00 to 9.00

Report measured pIC50; entry is Cc1cc(Nc2cc(N[C@H](COCc3ccccc3)C(N)=O)ccc2C(N)=O)sn1 [Example 15]
6.00 to 7.00

Report measured pIC50; entry is NC(=O)c1cc(F)c(N[C@@H](C(N)=O)C2CC2)nc1Nc1cnc2ccccc2c1 [Example 196]
7.00 to 8.00

Report measured pIC50; entry is NC(=O)c1cc(F)c(N[C@@H]2CCCC(F)(F)[C@@H]2N)nc1Nc1cnc2ccccc2c1 [Example 289]
6.00 to 7.00

Report measured pIC50; entry is NC(=O)c1ccc(N[C@@H]2CCCC[C@@H]2N)nc1Nc1ccncc1 [Example 181]
8.00 to 9.00

***
Report measured pIC50; entry is Cn1ccc2cc(Nc3nc(N[C@@H]4CCCC[C@@H]4N)ccc3C(N)=O)ccc21 [Example 397]
8.00 to 9.00

Report measured pIC50; entry is CC[C@@H](Nc1ccc(C(N)=O)c(Nc2csc3ncccc23)n1)C(N)=O [Example 425]
7.00 to 8.00

* * *

Biological target: full length active recombinant SYK enzyme (Homo sapiens)
Construct: full length active recombinant SYK enzyme (Millipore, Calif.); purchased Millipore
Assay: Inhibition of Syk tyrosine phosphorylation activity (LANCE TR-FRET kinase assay)
Assay type: biochemical
MEASURED QUANTITY: IC50

Some solved cases for reference:
Report measured IC50; entry is "Cc1cc(Nc2cc(N[C@@H](C(N)=O)C3CCCCC3)ccc2C(N)=O)sn1"
10 to 100 nM

Report measured IC50; entry is "Cc1cc(Nc2cc(N[C@@H](C(N)=O)C3CC3)c(F)cc2C(N)=O)sn1"
10 to 100 nM

Report measured IC50; entry is "NC(=O)c1cc(F)c(N[C@@H]2CCOC[C@@H]2N)nc1Nc1cccc(-n2nccn2)c1"
1 to 10 nM

***
Report measured IC50; entry is "Cn1ncc2c(Nc3nc(N[C@@H]4CCCC[C@@H]4N)ccc3C(N)=O)cccc21"
1 to 10 nM

Report measured IC50; entry is "NC(=O)c1cc(F)c(N[C@H]2[C@@H](N)CCCC2(F)F)nc1Nc1cnc2ccccc2c1"
1 to 10 nM

Report measured IC50; entry is "NC(=O)c1cc(F)c(N[C@H]2[C@@H](N)CCCC2(F)F)nc1Nc1cccnc1"
10 to 100 nM

Report measured IC50; entry is "NC(=O)c1ccc(N[C@@H]2CCCC[C@@H]2N)nc1Nc1cnc2ccccc2c1"
1 to 10 nM

Report measured IC50; entry is "NC(=O)c1cc(F)c(NC2(C(N)=O)CCCCC2)nc1Nc1cnc2ccccc2c1"
> 1000 nM

* * *

Molecular target: full length active recombinant SYK enzyme (Homo sapiens)
Construct: full length active recombinant SYK enzyme (Millipore, Calif.)
Assay: Inhibition of Syk tyrosine phosphorylation activity (LANCE TR-FRET kinase assay)
MEASURED QUANTITY: IC50

Report measured IC50; entry is "C[C@H](N)CNc1nc(Nc2cncc(F)c2)c(C(N)=O)cc1F"
100 to 1000 nM

***
Report measured IC50; entry is "CC(C)C[C@@H](Nc1nc(Nc2ccc3ncccc3c2)c(C(N)=O)cc1C#N)C(N)=O"
10 to 100 nM

Report measured IC50; entry is "NC(=O)c1cc(F)c(N[C@@H]2CCCC[C@@H]2N)nc1Nc1ccc2nccn2c1"
1 to 10 nM

Report measured IC50; entry is "CC[C@@H](Nc1nc(Nc2cccc3c2cnn3C)c(C(N)=O)cc1F)C(N)=O"
100 to 1000 nM

Report measured IC50; entry is "Cn1ccc2c(Nc3nc(N[C@@H]4CCCC[C@@H]4N)ccc3C(N)=O)cccc21"
1 to 10 nM

Report measured IC50; entry is "NC(=O)c1ccc(N[C@@H]2CCCC[C@@H]2N)nc1Nc1csc2ncccc12"
< 1 nM

Report measured IC50; entry is "CCC[C@@H](Nc1nc(Nc2ccc3cccnc3c2)c(C(N)=O)cc1F)C(N)=O"
100 to 1000 nM

Report measured IC50; entry is "NC(=O)c1cc(F)c(N[C@@H]2CCCC[C@@H]2N)nc1Nc1cccc(-c2ccncn2)c1"
1 to 10 nM

Report measured IC50; entry is "Cn1cc2c(Nc3nc(N[C@@H]4CCCC[C@@H]4N)c(C#N)cc3C(N)=O)cccc2n1"
1 to 10 nM

Report measured IC50; entry is "CC[C@H](Nc1nc(Nc2cccnc2)c(C(N)=O)cc1F)C1(N)CC1"
> 1000 nM

Report measured IC50; entry is "CC[C@@H](Nc1nc(Nc2csc3ncccc23)c(C(N)=O)cc1F)C(N)=O"
10 to 100 nM
